Values were extracted from patent US12521440B2.

- target: BTK (Homo sapiens)
- Construct: endogenous in cells; host or cells: TMD-8 cells
- Sequence (Q06187 whole entry): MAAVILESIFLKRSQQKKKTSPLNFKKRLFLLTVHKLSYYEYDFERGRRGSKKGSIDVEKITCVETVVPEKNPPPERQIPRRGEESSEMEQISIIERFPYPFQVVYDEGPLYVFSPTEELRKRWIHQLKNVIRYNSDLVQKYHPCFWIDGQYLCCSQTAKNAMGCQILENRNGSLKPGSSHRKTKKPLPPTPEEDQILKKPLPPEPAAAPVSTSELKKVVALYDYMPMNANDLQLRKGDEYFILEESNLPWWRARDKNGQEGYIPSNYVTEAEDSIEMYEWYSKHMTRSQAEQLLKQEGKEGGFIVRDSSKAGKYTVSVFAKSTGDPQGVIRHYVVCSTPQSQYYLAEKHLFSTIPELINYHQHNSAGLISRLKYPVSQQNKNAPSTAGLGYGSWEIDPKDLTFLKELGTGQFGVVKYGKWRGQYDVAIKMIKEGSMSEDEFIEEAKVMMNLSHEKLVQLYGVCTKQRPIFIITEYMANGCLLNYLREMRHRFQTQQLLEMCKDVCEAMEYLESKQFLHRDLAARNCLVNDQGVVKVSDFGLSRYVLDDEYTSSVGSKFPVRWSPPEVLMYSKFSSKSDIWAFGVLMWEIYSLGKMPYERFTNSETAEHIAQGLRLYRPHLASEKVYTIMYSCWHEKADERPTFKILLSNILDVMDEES
- protocol.notes: BTK degradation in TMD-8 cells (HTRF assay)
- Type: cell-based
- reported.conditions: 6 h treatment, HTRF BTK degradation IC50 (DC50)
Grouping key: DC50. Bins: low (below 1 nM), moderate (1 nM to below 4 nM), high (4 nM or more)

Record excerpt, results attached:
Q: Record Cc1cc(-c2cc(Nc3ccc(N4CCN(CC5CCN(c6ccc(N7CCC(=O)NC7=O)cc6)CC5)CC4)cn3)ncn2)c(F)cc1[C@@H](C)NC(=O)c1nc(C(C)(C)C)no1 — which class?
Ans: moderate

Q: Record Cc1cc(-c2cc(Nc3ccc(N4CCC5(CC4)CN(C(=O)C4CN(c6ccc(N7CCC(=O)NC7=O)cc6)C4)C5)cn3)ncn2)ccc1[C@@H](C)NC(=O)c1nc(C(C)(C)C)no1 — which class?
Ans: low

Q: Record Cc1cc(-c2cc(Nc3ccc(N4CCN(C(=O)C5CN(c6cc(F)c(C7CCC(=O)NC7=O)c(F)c6)C5)CC4)cn3)ncn2)ccc1[C@@H](C)NC(=O)c1nc(C(C)(C)C)no1 (stereo partly shown) — which class?
Ans: moderate

---
Q: Record Cc1cc(-c2cc(Nc3cc(C)c(N4CCN(CC5CCN(c6ccc(N7CCC(=O)NC7=O)cc6)CC5)CC4)cn3)ncn2)ccc1[C@@H](C)NC(=O)c1nc(C(C)(C)C)no1 — which class?
Ans: high

Q: Record Cc1cc(-c2cc(Nc3ccc(N4CCC5(CC4)CN(CC4CCN(c6ccc(N7CCC(=O)NC7=O)cc6)CC4)C5)cn3)ncn2)ccc1[C@@H](C)NC(=O)c1nc(C(C)(C)C)no1 — which class?
Ans: moderate

Q: Record Cc1cc(-c2cc(Nc3ccc(N4CCN(C[C@@H]5CCN(c6ccc(N7CCC(=O)NC7=O)cc6)C5)CC4)cn3)ncn2)ccc1[C@@H](C)NC(=O)c1nc(C(C)(C)C)no1 — which class?
Ans: high

Q: Record Cc1cc(-c2cc(Nc3ccc(N4CCN([C@H]5C[C@H](c6ccc(N[C@@H]7CCC(=O)NC7=O)cc6)C5)CC4)cn3)ncn2)ccc1[C@@H](C)NC(=O)c1nc(C(C)(C)C)no1 — which class?
Ans: moderate

Q: Record Cc1cc(-c2cc(Nc3ccc(N4CC(CN5CCN(c6ccc(N7CCC(=O)NC7=O)cc6)CC5)C4)cn3)ncn2)ccc1[C@@H](C)NC(=O)c1nc(C(C)(C)C)no1 — which class?
Ans: moderate

Q: Record Cc1cc(-c2cc(Nc3ccc(N4CCN(CC5CCN(c6ccc(N7CCC(=O)NC7=O)c(F)c6)CC5)CC4)cc3)ncn2)c(F)cc1[C@@H](C)NC(=O)c1nc(C(C)(C)C)no1 — which class?
Ans: high

Q: Record Cc1cc(-c2cc(Nc3ccc(N4CCN(C(=O)C5CN(c6ccc(N7CCC(=O)NC7=O)cc6)C5)CC4)cn3)ncn2)ccc1[C@@H](C)NC(=O)c1nc(C(C)(C)C)no1 — which class?
Ans: low

Q: Record Cc1cc(-c2cc(Nc3ccc(N4CC5(CCN(CC6CCN(c7ccc(N8CCC(=O)NC8=O)cc7)CC6)CC5)C4)cn3)ncn2)ccc1[C@@H](C)NC(=O)c1nc(C(C)(C)C)no1 — which class?
Ans: moderate

Q: Record Cc1cc(-c2cc(Nc3cc(F)c(N4CCN(CC5CCN(c6ccc(N7CCC(=O)NC7=O)cc6)CC5)CC4)cn3)ncn2)ccc1[C@@H](C)NC(=O)c1nc(C(C)(C)C)no1 — which class?
Ans: moderate
